Reported IC50 SJSA-1 (sarcoma tissue) values for a set of molecules
- System: SJSA-1 (sarcoma tissue)
- Assay Overview: cells
- Format: cell-based
- Condition Notes: CCK8, 48 h; Table 1
Where a SMILES comes first, the peptide text is derived from it. The star is where a group is joined. X1 = CC[C@@]1(O)C(=O)OCc2c1cc1n(c2=O)Cc2c-1nc1ccccc1c2CCN(C1CCC1)*; X3 = CC[C@@]1(O)C(=O)OCc2c1cc1n(c2=O)Cc2c-1nc1ccccc1c2CCN(C1CC1)*; Propanoyl(3-maleimido) = O=C1C=CC(=O)N1CCC(=O)*; PEG6 = NCCOCCOCCOCCOCCOCCOCCC(=O)O
Experimental Readout: IC50 SJSA-1 (sarcoma tissue)

1) CCCNCCc1c2c(nc3ccccc13)-c1cc3c(c(=O)n1C2)COC(=O)[C@]3(O)CC ... 0.029 µg/mL
2) CC[C@@]1(O)C(=O)OCc2c1cc1n(c2=O)Cc2c-1nc1ccccc1c2CCN(C(=O)CNC(=O)[C@H](Cc1ccccc1)NC(=O)CNC(=O)CNC(=O)CCOCCOCCOCCOCCOCCOCCNC(=O)CCN1C(=O)C=CC1=O)C1CC1 [MI-6PEG-GGFG-D6] ({Propanoyl(3-maleimido)-PEG6}-GGFG-X3) ... 0.73 µg/mL
3) CC[C@@]1(O)C(=O)OCc2c1cc1n(c2=O)Cc2c-1nc1ccccc1c2CCN(C(=O)CNC(=O)[C@H](Cc1ccccc1)NC(=O)CNC(=O)CNC(=O)CCOCCOCCOCCOCCOCCOCCNC(=O)CCN1C(=O)C=CC1=O)C1CCC1 [MI-6PEG-GGFG-D7] ({Propanoyl(3-maleimido)-PEG6}-GGFG-X1) ... 1.28 µg/mL
4) CC[C@@]1(O)C(=O)OCc2c1cc1n(c2=O)Cc2c-1nc1ccccc1c2CCN(C(=O)CNC(=O)[C@H](CC(N)=O)NC(=O)[C@H](C)NC(=O)[C@H](C)NC(=O)CCOCCOCCOCCOCCOCCOCCNC(=O)CCN1C(=O)C=CC1=O)C1CCC1 [MI-6PEG-AANG-D7] ({Propanoyl(3-maleimido)-PEG6}-AANG-X1) ... 0.53 µg/mL

These data points were gathered from patent US20250235545A1.
